Item-by-item account of IC50 cell viability
Tested on: MIA PaCa-2
Details: OFD1 knockdown: no (no doxycycline)
Report only the number, with the unit µM understood.

Fill in: IC50 cell viability of S=c1[nH]cnc2nc[nH]c12 is ___
27.5

Now the molecule COc1cc(Nc2ncc3c(n2)-c2ccc(Cl)cc2C(c2c(F)cccc2OC)=NC3)ccc1C(=O)O
8.24

Now the molecule N[C@@H](CC(=O)N1CCn2c(nnc2C(F)(F)F)C1)Cc1cc(F)c(F)cc1F
21.9

New cases:
Fill in: IC50 cell viability of CN1CCN(c2ccc3nc(-c4c(N)c5c(F)cccc5[nH]c4=O)[nH]c3c2)CC1 is ___
12.9

Now the molecule CC(C)C[C@H](NC(=O)CNC(=O)c1cc(Cl)ccc1Cl)B(O)O
45.1

Now the molecule COc1nc(N)nc2c1ncn2[C@@H]1O[C@H](CO)[C@@H](O)[C@@H]1O
1.66

Now the molecule CC1=C(/C=C/C(C)=C/C=C/C(C)=C\C(=O)O)C(C)(C)CCC1
12.2

Now the molecule CCC(C)(C)C(=O)O[C@H]1C[C@@H](C)C=C2C=C[C@H](C)[C@H](CC[C@@H]3C[C@@H](O)CC(=O)O3)[C@H]21
26.2

Now the molecule O=C(O)C(=O)O.[NH-][C@@H]1CCCC[C@H]1[NH-].[Pt+2]
60.3

Now the molecule CCC1(c2ccc(N)cc2)CCC(=O)NC1=O (centres undefined)
23.6

Now the molecule C[C@]12CC[C@@H]3c4ccc(O)cc4CC[C@H]3[C@@H]1CCC2=O
38.1

Now the molecule C=CC(=O)N1CCC[C@@H](n2nc(-c3ccc(Oc4ccccc4)cc3)c3c(N)ncnc32)C1
53.1

Now the molecule CC1(C)CCC(CN2CCN(c3ccc(C(=O)NS(=O)(=O)c4ccc(NCC5CCOCC5)c([N+](=O)[O-])c4)c(Oc4cnc5[nH]ccc5c4)c3)CC2)=C(c2ccc(Cl)cc2)C1
13.1

Now the molecule O=C(O)CCCc1ccc(N(CCCl)CCCl)cc1
21.7
